assay: qHTS assay for small molecule disruptors of the mitochondrial membrane potential - 1 hr assay (AID 651754); conditions: series mostly up to 92.2 µM; further: nearly all actives have a fitted effect of over 35% in size
Records with an inconclusive call do not appear. The source made the active and inactive calls. The call rests on the fitted dose curve.
Thanks in advance; please answer with one of these: active, inactive

These solved cases illustrate the format of a correct answer.
Cc1ccc2c(c1[N+](=O)[O-])C(=O)c1ccccc1C2=O :: active
CO[Si](CCCNCCC[Si](OC)(OC)OC)(OC)OC :: inactive
C1COC1 :: inactive
CCC1CO1 (centres undefined) :: inactive
OC1CCCC1 :: inactive

Consider the additional molecule presented here.
Q: Fill in: this test's call for CNc1ccccc1 is ___
Ans: inactive
